# TEST_DETAILS: Oral bioavailability in pigeon at 30 mg/kg, po by naive pooling approach
# Assay type: ADME, organism-based
# TEST_CONDITIONS: columba livia, in vivo
RECORDED_ENDPOINT: bioavailability (%)
Numbers only, in %.

Param item = CS(=O)(=O)c1ccc([C@@H](O)[C@@H](CF)NC(=O)C(Cl)Cl)cc1 [FLORFENICOL] ; retrieve measured bioavailability.
58.5

---

# TEST_DETAILS: Half life at beta phase in pigeon at 30 mg/kg, po by naive pooling approach
# Format: ADME, organism-based
# Design: dose 30 mg/kg, route oral
# TEST_CONDITIONS: columba livia, in vivo
RECORDED_ENDPOINT: half-life (h)
One number for each entry, in h.

Param item = CS(=O)(=O)c1ccc([C@@H](O)[C@@H](CF)NC(=O)C(Cl)Cl)cc1 ; retrieve measured half-life.
2.69

---

# TEST_DETAILS: Half life at beta phase in pigeon at 30 mg/kg, iv by naive pooling approach
# Assay type: ADME, organism-based
# Design: dose 30 mg/kg, route intravenous
# TEST_CONDITIONS: columba livia, in vivo
RECORDED_ENDPOINT: half-life (h)
One number for each entry, in h.

Param item = CS(=O)(=O)c1ccc([C@@H](O)[C@@H](CF)NC(=O)C(Cl)Cl)cc1 ; retrieve measured half-life.
1.73

---

# TEST_DETAILS: in vivo
# TEST_CONDITIONS: columba livia, plasma, iv, 30 mg/kg
RECORDED_ENDPOINT: AUC(0-inf) (ng·h/mL)
One number for each entry, in ng·h/mL.

Param item = CS(=O)(=O)c1ccc([C@@H](O)[C@@H](CF)NC(=O)C(Cl)Cl)cc1 [FLORFENICOL] ; retrieve measured AUC(0-inf).
21300

---

# TEST_DETAILS: Volume of distribution in pigeon at 30 mg/kg, iv by naive pooling approach
# Type: ADME, organism-based
# Set-up: dose 30 mg/kg, route intravenous
# TEST_CONDITIONS: columba livia, in vivo
RECORDED_ENDPOINT: Vd (L/kg)
Answers are plain numbers, in L/kg.

Param item = CS(=O)(=O)c1ccc([C@@H](O)[C@@H](CF)NC(=O)C(Cl)Cl)cc1 ; retrieve measured Vd.
2.02

---

# TEST_DETAILS: Mean residence time in pigeon at 30 mg/kg, iv by naive pooling approach
# Type: ADME, organism-based
# Design: dose 30 mg/kg, route intravenous
# TEST_CONDITIONS: columba livia, in vivo, read-out: Time
RECORDED_ENDPOINT: MRT (h)
Numbers only, in h.

Param item = CS(=O)(=O)c1ccc([C@@H](O)[C@@H](CF)NC(=O)C(Cl)Cl)cc1 [FLORFENICOL] ; retrieve measured MRT.
1.43

---

# TEST_DETAILS: Oral bioavailability in pigeon at 30 mg/kg, po
# Format: ADME, organism-based
# TEST_CONDITIONS: columba livia, in vivo
RECORDED_ENDPOINT: bioavailability

Param item = CS(=O)(=O)c1ccc([C@@H](O)[C@@H](CF)NC(=O)C(Cl)Cl)cc1 [FLORFENICOL] ; retrieve measured bioavailability.
60%

---

# TEST_DETAILS: in vivo
# TEST_CONDITIONS: columba livia, plasma, po, 30 mg/kg
RECORDED_ENDPOINT: AUC(0-inf) (ng·h/mL)
Give bare numbers, in ng·h/mL.

Param item = CS(=O)(=O)c1ccc([C@@H](O)[C@@H](CF)NC(=O)C(Cl)Cl)cc1 [FLORFENICOL] ; retrieve measured AUC(0-inf).
12500

---

# System: Columba livia
# TEST_DETAILS: Drug uptake in Salmonella enterica subsp. enterica serovar Typhimurium PT99/DAB69 infected pigeon at 26 to 45 mg/kg
# Assay type: ADME, organism-based
# Set-up: dose 26-45 mg/kg
# TEST_CONDITIONS: in vivo
RECORDED_ENDPOINT: Drug uptake (mg/kg)
One number for each entry, in mg/kg.

What value of Drug uptake on Columba livia does CS(=O)(=O)c1ccc([C@@H](O)[C@@H](CF)NC(=O)C(Cl)Cl)cc1 have?
35
